This collection of values is drawn from ChEMBL document CHEMBL1124139.

In this section, each of the molecules is paired with its reported MAO-B activity (% of control).
molecular target: Amine oxidase [flavin-containing] B (Rattus norvegicus, UniProt P19643); assay: Concentration required to inhibit Monoamine oxidase B in rat brain using [14C]phenylethylamine; type: tissue-based
Sequence (P19643 whole entry): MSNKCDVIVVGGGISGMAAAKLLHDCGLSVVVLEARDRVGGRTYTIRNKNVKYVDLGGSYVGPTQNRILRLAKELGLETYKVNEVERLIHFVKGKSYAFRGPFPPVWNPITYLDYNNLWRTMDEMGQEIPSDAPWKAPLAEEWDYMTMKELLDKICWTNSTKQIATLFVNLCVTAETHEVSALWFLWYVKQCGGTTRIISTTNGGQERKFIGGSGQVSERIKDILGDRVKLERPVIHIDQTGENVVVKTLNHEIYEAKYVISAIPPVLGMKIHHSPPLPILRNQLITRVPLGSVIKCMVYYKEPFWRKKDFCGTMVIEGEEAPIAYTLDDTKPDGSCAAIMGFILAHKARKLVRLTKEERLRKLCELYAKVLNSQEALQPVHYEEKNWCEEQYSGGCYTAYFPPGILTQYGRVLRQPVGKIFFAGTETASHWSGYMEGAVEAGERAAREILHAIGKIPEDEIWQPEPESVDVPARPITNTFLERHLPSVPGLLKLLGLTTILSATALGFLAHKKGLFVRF

{"columns": ["Mol", "MAO-B activity (% of control) (%)"],
 "data": [
  ["Cn1nc(-c2ccc(Cl)cc2)n(C)c1=S", 75],
  ["Cn1nc(-c2cccc(F)c2)n(C)c1=S", 96],
  ["Cn1nc(-c2ccc(F)cc2)n(C)c1=S", 90],
  ["Cn1nc(-c2c(F)cccc2F)n(C)c1=S", 97],
  ["Cn1nc(-c2ccccc2)n(C)c1=S", 110],
  ["Cn1nc(-c2ccccc2F)n(C)c1=S", 96]
]}

* * *

In this section, each of the molecules is paired with its reported MAO-A activity remaining (% of control).
target: Amine oxidase [flavin-containing] A (Rattus norvegicus, UniProt P21396); experiment: Concentration required to inhibit Monoamine oxidase A activity in rat brain using [14C]5-HT; format: tissue-based
Sequence (P21396 whole entry): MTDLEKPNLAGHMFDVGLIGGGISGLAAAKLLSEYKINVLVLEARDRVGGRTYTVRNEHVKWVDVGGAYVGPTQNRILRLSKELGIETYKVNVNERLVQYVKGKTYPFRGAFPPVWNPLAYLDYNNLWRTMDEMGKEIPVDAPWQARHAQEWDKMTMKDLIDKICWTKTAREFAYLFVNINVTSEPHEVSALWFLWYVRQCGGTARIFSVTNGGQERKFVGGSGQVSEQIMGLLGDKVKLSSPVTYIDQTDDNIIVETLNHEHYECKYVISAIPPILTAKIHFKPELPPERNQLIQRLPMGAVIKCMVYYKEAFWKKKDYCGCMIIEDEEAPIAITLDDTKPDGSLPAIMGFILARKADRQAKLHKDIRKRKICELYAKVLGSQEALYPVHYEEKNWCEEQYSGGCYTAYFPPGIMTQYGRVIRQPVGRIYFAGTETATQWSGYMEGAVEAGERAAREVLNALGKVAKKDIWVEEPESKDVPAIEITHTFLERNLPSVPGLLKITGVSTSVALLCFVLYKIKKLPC

{"columns": ["Molecule", "MAO-A activity remaining (% of control) / %"],
 "data": [
  ["Cn1nc(-c2c(F)cccc2F)n(C)c1=S", 104],
  ["Cn1nc(-c2ccccc2)n(C)c1=S", 104],
  ["Cn1nc(-c2cccc(F)c2)n(C)c1=S [SURITOZOLE]", 105],
  ["Cn1nc(-c2ccc(F)cc2)n(C)c1=S", 70],
  ["Cn1nc(-c2ccccc2F)n(C)c1=S", 72],
  ["Cn1nc(-c2ccc(Cl)cc2)n(C)c1=S", 109]
]}

* * *

assay: Acute cytotoxicity was evaluated as LD50 in mice (ip); format: organism-based; details: mouse, in vivo

{"columns": ["Molecule", "Sign", "LD50, mg/kg"],
 "data": [
  ["CCCn1c(-c2ccc(Cl)cc2)nn(C)c1=S", "=", 200],
  ["Cn1nc(-c2cccc(F)c2)n(C)c1=S [SURITOZOLE]", "=", 200],
  ["Cn1nc(-c2ccc(Cl)cc2)n(C)c1=S", "=", 400],
  ["Cn1nc(-c2ccc3c(c2)OCO3)n(C)c1=S", ">", 800],
  ["Fc1ccc(-c2n[nH]c(S)n2)cc1", "=", 400],
  ["Cn1nc(-c2ccccc2F)n(C)c1=S", "=", 400],
  ["COc1ccc(-c2nn(C)c(=S)n2C)cc1", ">", 800],
  ["Cn1nc(-c2ccc(F)cc2F)n(C)c1=S", "=", 400],
  ["CN(C)CCC=C1c2ccccc2CCc2ccccc21 [AMITRIPTYLINE]", "=", 100],
  ["CCn1c(-c2ccccc2)nn(C)c1=S", "=", 400],
  ["Cn1nc(-c2cccc(C(F)(F)F)c2)n(C)c1=S", "=", 400],
  ["Cn1nc(-c2ccccc2Cl)n(C)c1=S", "=", 200],
  ["C#CCN(C)[C@H](C)Cc1ccccc1 [SELEGILINE]", "=", 200],
  ["Cn1nc(-c2ccc(Cl)cc2Cl)n(C)c1=S", ">", 80],
  ["Cn1nc(-c2c(F)cccc2F)n(C)c1=S", "=", 400],
  ["Cn1nc(-c2ccc(F)cc2)n(C)c1=S", "=", 200],
  ["Cn1nc(-c2ccc(Cl)cc2)nc1S", ">", 800],
  ["CC(Cc1ccccc1)NN (stereo not drawn) [PHENIPRAZINE]", "=", 100]
]}
